target: ERα (Homo sapiens, UniProt P03372); construct: expressed in transfected cells; experiment: Counterscreening, Firefly signal with ERα transient transfection (Firefly_ERa); assay type: cell-based; conditions: ERα transient transfection, 10 μM, repeat 1
Sequence (P03372 whole entry, species assumed): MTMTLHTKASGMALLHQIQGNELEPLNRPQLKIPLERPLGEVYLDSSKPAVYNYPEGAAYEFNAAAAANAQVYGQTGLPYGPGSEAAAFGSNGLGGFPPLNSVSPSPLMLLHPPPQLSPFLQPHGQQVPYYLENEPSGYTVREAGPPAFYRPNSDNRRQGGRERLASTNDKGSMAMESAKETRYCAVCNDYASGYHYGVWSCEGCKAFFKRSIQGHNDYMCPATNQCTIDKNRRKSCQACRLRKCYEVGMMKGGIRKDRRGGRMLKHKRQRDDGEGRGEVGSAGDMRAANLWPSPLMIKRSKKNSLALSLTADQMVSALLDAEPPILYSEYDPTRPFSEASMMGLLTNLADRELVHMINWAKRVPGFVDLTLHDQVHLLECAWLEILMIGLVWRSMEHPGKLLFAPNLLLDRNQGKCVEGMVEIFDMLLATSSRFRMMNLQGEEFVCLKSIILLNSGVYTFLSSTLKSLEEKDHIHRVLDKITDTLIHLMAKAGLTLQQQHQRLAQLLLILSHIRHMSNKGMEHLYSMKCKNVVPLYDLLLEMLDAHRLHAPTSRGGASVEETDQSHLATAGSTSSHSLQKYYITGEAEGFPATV
# Firefly_ERa, cmpd/DMSO repeat 1 >= 2 gives satisfied, anything below gives not satisfied

Previously resolved entries follow.
{"molecule": "Cc1ccnc(NC(=O)c2cc3sc4ccccc4c3s2)c1 [Compound 20]", "label-value": "not satisfied"}
{"molecule": "COCCNC(=O)c1ccc2c(c1)N=C(C)c1cc(C)ccc1S2 [Compound C8]", "label-value": "not satisfied"}
{"molecule": "Cc1cc(NC(=O)CCS(=O)(=O)c2nc(-c3ccc4c(c3)OCO4)cc(C(F)(F)F)n2)no1 [Compound C1]", "label-value": "not satisfied"}

Does Firefly_ERa, cmpd/DMSO repeat 1 meet or surpass 2 for COc1ccc(-c2cn3cccc(C)c3n2)cc1 [Compound 19] ?
satisfied

Does Firefly_ERa, cmpd/DMSO repeat 1 meet or surpass 2 for O=C(Nc1ccc(Cl)cn1)c1ccc(I)cc1 [Compound 18] ?
satisfied

Does Firefly_ERa, cmpd/DMSO repeat 1 meet or surpass 2 for CCn1c(=O)c2cc(C(=O)Nc3ccc4c(C)cc(=O)oc4c3)sc2c2ccccc21 [Compound C16] ?
not satisfied

Does Firefly_ERa, cmpd/DMSO repeat 1 meet or surpass 2 for COc1ccc(-c2cc(C(F)(F)F)nc(S(=O)(=O)CCCC(=O)Nc3sc4c(c3C(N)=O)CCCC4)n2)cc1OC [Compound C2] ?
not satisfied

Does Firefly_ERa, cmpd/DMSO repeat 1 meet or surpass 2 for O=c1[nH]c(CS(=O)(=O)c2ccccc2)nc2sc3c(c12)CCCC3 [Compound 25] ?
not satisfied

Does Firefly_ERa, cmpd/DMSO repeat 1 meet or surpass 2 for CCOC(=O)c1cnn2c(-c3ccc(Cl)cc3)ccnc12 [Compound C4] ?
not satisfied

====

target: NR2F6 LBD (Homo sapiens); construct: expressed in transfected cells; assay: NR2F6 LBD transient transfection; assay type: cell-based; details: 40 uM
Sequence (P10588 165-393 limits assumed): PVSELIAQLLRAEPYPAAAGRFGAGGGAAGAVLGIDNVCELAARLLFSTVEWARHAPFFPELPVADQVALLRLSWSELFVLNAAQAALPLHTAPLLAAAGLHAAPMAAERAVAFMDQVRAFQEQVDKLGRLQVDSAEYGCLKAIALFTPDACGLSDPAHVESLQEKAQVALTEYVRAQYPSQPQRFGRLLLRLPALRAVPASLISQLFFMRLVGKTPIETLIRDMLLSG
Firefly LBD, cmpd/DMSO (mean) values for the molecules below.
The reply should be a number, written without any unit.

{"molecule": "O=S1(=O)C[C@H](NCC2CCCO2)[C@@H](S(=O)(=O)c2cccs2)C1 (stereo partly shown) [Compound D134]", "Firefly LBD, cmpd/DMSO (mean)": 1.8}
{"molecule": "CC(C)OCCCN[C@H]1CS(=O)(=O)C[C@@H]1S(=O)(=O)c1ccc(Cl)cc1 [Compound D138]", "Firefly LBD, cmpd/DMSO (mean)": 0.4}
{"molecule": "CC(C)CCN[C@H]1CS(=O)(=O)C[C@@H]1S(=O)(=O)c1ccc(Cl)cc1 [Compound D131]", "Firefly LBD, cmpd/DMSO (mean)": 0.5}
{"molecule": "COCCN[C@H]1CS(=O)(=O)C[C@@H]1S(=O)(=O)c1ccc(Cl)cc1 [Compound D136]", "Firefly LBD, cmpd/DMSO (mean)": 2.9}

Give reported Firefly LBD, cmpd/DMSO (mean) value for O=S1(=O)C[C@H](NCCCc2ccccc2)[C@@H](S(=O)(=O)c2ccc(Cl)cc2)C1 [Compound D137]
0.4

Give reported Firefly LBD, cmpd/DMSO (mean) value for O=S1(=O)C[C@H](NCc2ccco2)[C@@H](S(=O)(=O)c2cccs2)C1 [Compound D135]
2.8

Give reported Firefly LBD, cmpd/DMSO (mean) value for O=S1(=O)C[C@H](N2CCCC2)[C@@H](S(=O)(=O)c2cccs2)C1 [Compound D104]
0.2

The reported numbers originate from patent US11377442B2.
